Experiment: Multi-component pharmacokinetics in rat plasma after oral administration of RB, RPA or RB-RPA extracts (UPLC-HRMS, non-compartmental analysis)
Type: in vivo, Sprague-Dawley rats
Settings: male, Sprague-Dawley, rat, plasma, po, 45 g/kg, rat plasma, oral administration of mixed extracts RB-RPA, mean ± SD, n = 7
# half-life annotations
Answer format: value, then unit.

# MOLECULE, EXPERIMENTAL_RESULT
data = [
    ("COC(=O)c1cc(O)c(O)c(O)c1 [Methyl gallate]", "4.77 h"),
]

Now for another entry.
**Query** half-life lookup needed for C[C@@]12C[C@@]3(O)O[C@@H](O1)[C@]1(COC(=O)c4ccccc4)[C@H]3C[C@@]12O[C@@H]1O[C@H](CO)[C@@H](O)[C@H](O)[C@H]1O [Paeoniflorin] , thanks.
**Result** 1.96 h

----------
Experiment: Multi-component pharmacokinetics in rat plasma after oral administration of RB, RPA or RB-RPA extracts (UPLC-HRMS, non-compartmental analysis)
Format: in vivo, Sprague-Dawley rats
Conditions: rat plasma, oral RB single extract 45 g-herb/kg, mean ± SD, n = 7
MEASURED_METRIC: AUC0-∞ (ng·h/mL)
Please reply with the bare figure in ng·h/mL and do not write the unit itself.

Example results:
# MOL, AUC0-∞ / ng·h/mL
records = [
    ("C[C@H]1O[C@@H](O[C@H]2CC[C@@]3(C)[C@@H](CC[C@]4(C)[C@@H]3C=CC3=C5CC(C)(C)CC[C@]5(CO)[C@H](O)C[C@]34C)[C@]2(C)CO)[C@H](O)[C@@H](O)[C@H]1O", 31.50),
    ("CC1(C)CC[C@@]2(CO)C(=C3C=C[C@@H]4[C@@]5(C)CC[C@H](O)[C@@](C)(CO)[C@@H]5CC[C@@]4(C)[C@]3(C)C[C@H]2O)C1", 85.33),
    ("CC1(C)CC[C@]23CO[C@@]4(C=C[C@@H]5[C@@]6(C)CC[C@H](O)[C@@](C)(CO)[C@@H]6CC[C@@]5(C)[C@]4(C)C[C@H]2O)[C@@H]3C1", 57.20),
]

Please look at the following compound next.
**Query** # lookup: AUC0-∞ of CC1(C)CC[C@]23CO[C@@]4(C=C[C@@H]5[C@@]6(C)CC[C@H](O)[C@@](C)(CO)[C@@H]6CC[C@@]5(C)[C@]4(C)C[C@@H]2O)[C@@H]3C1
**Result** 159.01

----------
Test: Multi-component pharmacokinetics in rat plasma after oral administration of RB, RPA or RB-RPA extracts (UPLC-HRMS, non-compartmental analysis)
Assay type: in vivo, Sprague-Dawley rats
Settings: rat plasma, oral RB-RPA mixed extracts (45 g-herb/kg RB + 45 g-herb/kg RPA), mean ± SD, n = 7
MEASURED_METRIC: tmax (h)
Give the value in h but do not write h after it.

**Query** Recorded tmax of C[C@H]1O[C@@H](O[C@H]2CC[C@@]3(C)[C@@H](CC[C@]4(C)[C@@H]3C=C[C@]35OC[C@@]6(CCC(C)(C)C[C@H]63)[C@@H](O)C[C@]54C)[C@]2(C)CO)[C@H](O)[C@@H](O)[C@H]1O , please.
**Result** 1.62

**Query** Name the reported tmax value associated with the molecule CC(=O)OC[C@H]1O[C@@H](O[C@H]2[C@@H](O)[C@@H](C)O[C@@H](O[C@H]3CC[C@@]4(C)[C@@H](CC[C@]5(C)[C@@H]4C=CC46OCC7(CCC(C)(C)C[C@H]74)[C@@H](O)C[C@]65C)[C@]3(C)CO)[C@@H]2O)[C@H](O)[C@@H](O)[C@@H]1O (some centres unmarked)
**Result** 0.54

----------
Experiment: Multi-component pharmacokinetics in rat plasma after oral administration of RB, RPA or RB-RPA extracts (UPLC-HRMS, non-compartmental analysis)
Assay type: in vivo, Sprague-Dawley rats
Conditions: rat plasma, oral RB-RPA mixed extracts (45 g-herb/kg RB + 45 g-herb/kg RPA), mean ± SD, n = 7
MEASURED_METRIC: t1/2

# MOLECULE, EXPERIMENTAL_RESULT
data = [
    ("C[C@H]1O[C@@H](O[C@H]2CC[C@@]3(C)[C@@H](CC[C@]4(C)[C@@H]3C=CC3=C5CC(C)(C)CC[C@]5(CO)[C@H](O)C[C@]34C)[C@]2(C)CO)[C@H](O)[C@@H](O[C@@H]2O[C@H](CO)[C@@H](O)[C@H](O)[C@H]2O)[C@H]1O [Saikosaponin B2]", "2.89 ± 1.14 h"),
    ("CC(=O)OC[C@H]1O[C@@H](O[C@H]2[C@@H](O)[C@@H](C)O[C@@H](O[C@H]3CC[C@@]4(C)[C@@H](CC[C@]5(C)[C@@H]4C=CC46OCC7(CCC(C)(C)C[C@H]74)[C@H](O)C[C@]65C)[C@]3(C)CO)[C@@H]2O)[C@H](O)[C@@H](O)[C@@H]1O (stereo partly shown) [Acetyl-saikosaponin D]", "4.39 ± 1.55 h"),
    ("CC1(C)CC[C@@]2(CO)C(=C3C=C[C@@H]4[C@@]5(C)CC[C@H](O)[C@@](C)(CO)[C@@H]5CC[C@@]4(C)[C@]3(C)C[C@H]2O)C1 [Saikogenin D]", "5.78 ± 2.37 h"),
]

# ---- query molecule ----
**Query** So what does the record say about t1/2 for C[C@H]1O[C@@H](O[C@H]2CC[C@@]3(C)[C@@H](CC[C@]4(C)[C@@H]3C=C[C@]35OC[C@@]6(CCC(C)(C)C[C@H]63)[C@H](O)C[C@]54C)[C@]2(C)CO)[C@H](O)[C@@H](O[C@@H]2O[C@H](CO)[C@@H](O)[C@H](O)[C@H]2O)[C@H]1O [Saikosaponin D] ?
**Result** 2.98 ± 0.89 h

----------
Experiment: Multi-component pharmacokinetics in rat plasma after oral administration of RB, RPA or RB-RPA extracts (UPLC-HRMS, non-compartmental analysis)
Type: in vivo, Sprague-Dawley rats
Settings: male, Sprague-Dawley, rat, plasma, po, 45 g/kg, rat plasma, oral administration of single extract RPA, mean ± SD, n = 7; read-out: tmax
MEASURED_METRIC: tmax
Record the result as a number with its unit.

**Query** Which tmax reading was recorded for the compound COC(=O)c1cc(O)c(O)c(O)c1 [Methyl gallate] ?
**Result** 34.8 min

----------
Readings of Cmax for the listed compounds
Assay: Multi-component pharmacokinetics in rat plasma after oral administration of RB, RPA or RB-RPA extracts (UPLC-HRMS, non-compartmental analysis)
Assay type: in vivo, Sprague-Dawley rats
Details: rat plasma, oral administration of mixed extracts RB-RPA, mean ± SD, n = 7
Where a name gives a salt, the structure may show the parent alone.
Record the result as number plus unit.

# COMPOUND, MEASURED_METRIC, EXPERIMENTAL_RESULT
measured = [
    ("CC1C2OC3(C)CC(=O)C1CC3(O)O2 (stereo not shown) [Paeonimetabolin I]", "Cmax", "575.13 ± 257.81 ng/mL"),
    ("C[C@@]12C[C@@]3(O)O[C@@H](O1)[C@]1(CO)[C@H]3C[C@@]12O[C@@H]1O[C@H](CO)[C@@H](O)[C@H](O)[C@H]1O", "Cmax", "10.12 ± 5.32 ng/mL"),
    ("O=S(=O)(O)Oc1cccc(O)c1O [Pyrogallol sulfate]", "Cmax", "24.16 ± 13.26 ng/mL"),
]

Kindly consider the entry below.
**Query** # lookup: Cmax of C[C@]12C[C@@H](O)[C@@H]3C[C@@]1(O[C@@H]1O[C@H](CO)[C@@H](O)[C@H](O)[C@H]1O)[C@@]3(COC(=O)c1ccccc1)C(=O)O2
**Result** 365.94 ± 41.75 ng/mL

----------
Test: Multi-component pharmacokinetics in rat plasma after oral administration of RB, RPA or RB-RPA extracts (UPLC-HRMS, non-compartmental analysis)
Format: in vivo, Sprague-Dawley rats
Conditions: male, Sprague-Dawley, rat, plasma, po, 45 g/kg, rat plasma, oral administration of single extract RPA, mean ± SD, n = 7
Catalogue of molecules with associated AUC(0-inf)
// return numeric value only (unit: ng·h/mL, not printed)

# MOLECULE, AUC(0-inf) [ng·h/mL]
rows = [
    ("C[C@@]12C[C@@]3(O)O[C@@H](O1)[C@]1(COC(=O)c4ccccc4)[C@H]3C[C@@]12O[C@@H]1O[C@H](CO)[C@@H](O)[C@H](O)[C@H]1O", 4260),
]

# next molecule below
**Query** Entry under review: COC(=O)c1cc(O)c(O)c(O)c1 [Methyl gallate] . Reported AUC(0-inf)?
**Result** 144

----------
Test: Multi-component pharmacokinetics in rat plasma after oral administration of RB, RPA or RB-RPA extracts (UPLC-HRMS, non-compartmental analysis)
Format: in vivo, Sprague-Dawley rats
Details: rat plasma, oral RB single extract 45 g-herb/kg, mean ± SD, n = 7
MEASURED_METRIC: AUC0-∞ (ng·h/mL)
// return numeric value only (unit: ng·h/mL, not printed)

// solved cases for AUC0-∞ follow
# COMPOUND, AUC0-∞ (ng·h/mL)
rows = [
    ("C[C@@H]1O[C@@H](O[C@@H]2[C@H](O)[C@@H](O)[C@H](O[C@H]3CC[C@@]4(C)C(CC[C@]5(C)C4C=C[C@]46OC[C@@]7(CCC(C)(C)CC74)[C@@H](O)C[C@]65C)C3(C)C)O[C@@H]2CO[C@@H]2O[C@H](CO)[C@@H](O)[C@H](O)[C@H]2O)[C@H](O)[C@H](O)[C@H]1O (some centres unmarked) [Saikosaponin C]", 42.15),
    ("CC(=O)OC[C@H]1O[C@@H](O[C@H]2[C@@H](O)[C@@H](C)O[C@@H](O[C@H]3CC[C@@]4(C)[C@@H](CC[C@]5(C)[C@@H]4C=CC46OCC7(CCC(C)(C)C[C@H]74)[C@@H](O)C[C@]65C)[C@]3(C)CO)[C@@H]2O)[C@H](O)[C@@H](O)[C@@H]1O (some centres unmarked) [Acetyl-saikosaponin A]", 57.19),
    ("C[C@H]1O[C@@H](O[C@@H]2CC[C@@]3(C)[C@@H](CC[C@]4(C)[C@@H]3C=C[C@]35OC[C@@]6(CCC(C)(C)C[C@H]63)[C@@H](O)C[C@]54C)[C@@]2(C)CO)[C@H](O)[C@@H](O)[C@H]1O [Prosaikogenin G]", 11.33),
    ("C[C@H]1O[C@@H](O[C@H]2CC[C@@]3(C)[C@@H](CC[C@]4(C)[C@@H]3C=CC3=C5CC(C)(C)CC[C@]5(CO)[C@H](O)C[C@]34C)[C@]2(C)CO)[C@H](O)[C@@H](O[C@@H]2O[C@H](CO)[C@@H](O)[C@H](O)[C@H]2O)[C@H]1O [Saikosaponin B2]", 67.92),
    ("C[C@H]1O[C@@H](O[C@H]2CC[C@@]3(C)[C@@H](CC[C@]4(C)[C@@H]3C=C[C@]35OC[C@@]6(CCC(C)(C)C[C@H]63)[C@H](O)C[C@]54C)[C@]2(C)CO)[C@H](O)[C@@H](O[C@@H]2O[C@H](CO)[C@@H](O)[C@H](O)[C@H]2O)[C@H]1O [Saikosaponin D]", 69.92),
]

**Query** Need AUC0-∞, item CC(=O)OC[C@H]1O[C@@H](O[C@H]2[C@@H](O)[C@@H](C)O[C@@H](O[C@H]3CC[C@@]4(C)[C@@H](CC[C@]5(C)[C@@H]4C=CC46OCC7(CCC(C)(C)C[C@H]74)[C@H](O)C[C@]65C)[C@]3(C)CO)[C@@H]2O)[C@H](O)[C@@H](O)[C@@H]1O (some centres unmarked) [Acetyl-saikosaponin D]
**Result** 25.54

**Query** // returns reported AUC0-∞ for input CC1(C)CC[C@]23CO[C@@]4(C=C[C@@H]5[C@@]6(C)CC[C@H](O)C(C)(C)[C@@H]6CC[C@@]5(C)[C@]4(C)C[C@@H]2O)[C@@H]3C1 [Saikogenin E]
**Result** 38.46

**Query** Fill in the blank: the reported AUC0-∞ of C[C@H]1O[C@@H](O[C@H]2CC[C@@]3(C)[C@@H](CC[C@]4(C)[C@@H]3C=C[C@]35OC[C@@]6(CCC(C)(C)C[C@H]63)[C@@H](O)C[C@]54C)[C@]2(C)CO)[C@H](O)[C@@H](O)[C@H]1O [Prosaikogenin F] is ____.
**Result** 57.97

Sourced from paper PMC7982521
